- Test system: SNB-75
- test.protocol: NCI tumour cell line growth inhibition, 48 h
Activity calls are given as the source filed them. Rule as the data show it: active = GI50 up to about 1.1 µM and inactive = higher.
Respond only with the outcome that fits, drawn from active, inactive

compound	class.assignment
CC(=O)O[C@H]1C(=O)[C@]2(C)[C@@H](OC(=O)OCC(O)CO)C[C@H]3OC[C@@]3(OC(C)=O)[C@H]2[C@H](OC(=O)c2ccccc2)[C@]2(O)C[C@H](OC(=O)[C@H](O)[C@@H](NC(=O)c3ccccc3)c3ccccc3)C(C)=C1C2(C)C (stereo partly drawn) [PACLITAXEL CERIBATE]	active
CC1CC(=O)C(C(O)CC2CC(=O)N(c3ccccc3)C(=O)C2)C(C)C1 (stereo not drawn)	inactive

Let us examine a further case.
Outcome? CC(C)CCCC(C)[C@H]1CCC2[C@@H]3CCC4Cc5nc6c(nc5C[C@]4(C)C3CC[C@@]21C)CC1CC[C@@H]2C(CC[C@@]3(C)C2CC[C@@H]3O)[C@@]1(C)C6 (stereo partly drawn)
inactive

###

- Tested on: SNB-19
- test.protocol: NCI tumour cell line growth inhibition, 48 h
Calls of active or inactive are those of the source. Rule as the data show it: active = GI50 up to about 1.1 µM and inactive = higher.
readout.name: GI50

Field: example entries. Status: answers known.
> print(dat)
                                   compound  experimental.system      recorded.result
1  CC(/C=C/C(=O)c1sc(C(N)=S)nc1C)=C\c1ccccc1               SNB-19   15.1 µM (inactive)
2  CCCCCC(=O)CCCCCCCC(O)CC(=O)OCC (centres undefined)               SNB-19  > 100 µM (inactive)
3  CCN(CC)CCCn1c(=O)c2ccccc2n2c3c(=O)n(C)c(=O)n(C)c3nc12               SNB-19   4.88 µM (inactive)

In the following, a different compound is considered.
Can you look up the measured GI50 of CCOC(=O)NC(Nc1cccc(F)c1)(C(F)(F)F)C(F)(F)F for me?
> 100 µM (inactive)

###

- Tested on: SK-OV-3
- test.protocol: NCI tumour cell line growth inhibition, 48 h
The source made the active and inactive calls. Cut-off read from the data, not from the text of the source: active = GI50 up to about 1.1 µM and inactive = higher.
# key: entry, value: GI50

> print(dat)
                                   compound      recorded.result
1  COc1cc2c(cc1OC)C(=O)N(c1ccc(OCCN3CCCC3)cc1)C2  > 100 µM (inactive)
2  Cc1cc(C)nc(NS(=O)(=O)c2ccc(NC(=O)c3ccc(Cl)c4c(Nc5ccc(S(=O)(=O)Nc6nc(C)cc(C)n6)cc5)c5ccccc5nc34)cc2)n1   13.7 µM (inactive)
3  O=[N+]([O-])C(C(Cl)=C(Cl)Cl)=C(n1cncn1)n1cncn1  > 100 µM (inactive)
4  O=[N+]([O-])c1ccc(C2Nn3c(nnc3-c3cccc([N+](=O)[O-])c3)S2)cc1 (configuration not stated)  > 100 µM (inactive)
5  CCOC(=O)NNC(=O)C1CSC(c2ccccc2)N1C(C)=O (configuration not stated)  > 100 µM (inactive)

Can you look up the measured GI50 of CC(=O)C(C(=O)C(C)(C)C)C(=O)C(C)(C)C for me?
> 100 µM (inactive)

Item: COc1ccc2[nH]cc(CCNC(=O)[C@H](Cc3ccc(O)cc3)NC(=O)[C@@H](NCC(F)(F)F)C(C)C)c2c1
> 100 µM (inactive)

Item: CCOC(=O)CC(=O)CSc1c(-c2ccccc2)c(=O)n(-c2ccccc2)c(=S)n1-c1ccccc1
> 100 µM (inactive)

Item: COc1cc(/C=C/C(=O)c2c([O-])on[n+]2-c2ccccc2)ccc1O
3.73 µM (inactive)

Item: O=C1NC2=C(CCCC/C2=N\O)C12CCCCC2
> 100 µM (inactive)

Item: CCOC(OC1=C(C#N)CCCC1)C(CC)[Se]c1ccccc1 (configuration not stated)
> 100 µM (inactive)

Item: COc1ccc(N2C(=O)C(=O)N(c3ccc(/N=N\c4ccccc4)cc3)C2=S)cc1
20.2 µM (inactive)
